Hey, just so you know, these numbers are from paper PMC11261605.

# assay: Maximal solubility in buffered solution
# Type: physicochemical
# condition_set: phosphate buffer, aqueous buffer; maximal solubility from solid (0.5 mg portions into 1 mL until precipitate); 50 mM aqueous Na2HPO4 pH 7.4; centrifuged 10 000 rpm 1 h 4 °C; supernatant by UV/vis absorbance
*1 amine or outer side, *2 acyl side, *3 side chain or, on linkers, in order; H or OH if unused. Where a SMILES comes first, the peptide text is derived from it. [ ]: non-standard residue; d: D form. X1 = O=C(c1cccc(N=Nc2ccc(CN[*:1])cc2)c1)[*:2]
result_type: solubility thermodynamic at 10 s (µM)

compound: CC(C)C[C@H](NC(=O)[C@H](C)NC(=O)c1cccc(N=Nc2ccc(CNC(=O)[C@H](Cc3ccccc3)NC(=O)[C@H](CC(N)=O)NC(=O)[C@H](Cc3c[nH]cn3)NC(=O)[C@@H](NC(=O)[C@H](CC(=O)O)NC(=O)[C@H](CCC(N)=O)NC(=O)[C@H](CC(C)C)NC(=O)[C@H](CCCCN)NC(=O)[C@H](CCCCN)NC(=O)[C@@H](N)CCCNC(=N)N)C(C)C)cc2)c1)C(=O)O [P12] (H-RKKLQDVHNF[X1]AL-OH)
readout_number: 135
--
compound: CC(C)C[C@H](NC(=O)[C@H](C)NC(=O)[C@@H](NC(=O)[C@H](Cc1ccccc1)NC(=O)[C@H](CC(N)=O)NC(=O)[C@H](Cc1c[nH]cn1)NC(=O)[C@@H](NC(=O)[C@H](CC(=O)O)NC(=O)[C@H](CCC(N)=O)NC(=O)[C@H](CC(C)C)NC(=O)[C@H](CCCCN)NC(=O)c1cccc(N=Nc2ccc(CNC(=O)[C@@H](N)CCCNC(=N)N)cc2)c1)C(C)C)C(C)C)C(=O)O [P9] (H-R[X1]KLQDVHNFVAL-OH)
readout_number: 130
--
compound: CC(C)C[C@H](NC(=O)[C@H](C)NC(=O)[C@@H](NC(=O)[C@H](Cc1ccccc1)NC(=O)c1cccc(N=Nc2ccc(CNC(=O)[C@H](CC(N)=O)NC(=O)[C@H](Cc3c[nH]cn3)NC(=O)[C@@H](NC(=O)[C@H](CC(=O)O)NC(=O)[C@H](CCC(N)=O)NC(=O)[C@H](CC(C)C)NC(=O)[C@H](CCCCN)NC(=O)[C@H](CCCCN)NC(=O)[C@@H](N)CCCNC(=N)N)C(C)C)cc2)c1)C(C)C)C(=O)O [P10] (H-RKKLQDVHN[X1]FVAL-OH)
readout_number: 7
--
compound: CC(C)C[C@H](NC(=O)[C@H](C)NC(=O)[C@@H](NC(=O)[C@H](Cc1ccccc1)NC(=O)[C@H](CC(N)=O)NC(=O)[C@H](Cc1c[nH]cn1)NC(=O)c1cccc(N=Nc2ccc(CNC(=O)[C@H](CCC(N)=O)NC(=O)[C@H](CC(C)C)NC(=O)[C@H](CCCCN)NC(=O)[C@H](CCCCN)NC(=O)[C@@H](N)CCCNC(=N)N)cc2)c1)C(C)C)C(=O)O [P5] (H-RKKLQ[X1]HNFVAL-OH)
readout_number: 25
--
compound: CC(C)C[C@H](NC(=O)[C@H](C)NC(=O)[C@@H](NC(=O)[C@H](Cc1ccccc1)NC(=O)[C@H](CC(N)=O)NC(=O)[C@H](Cc1c[nH]cn1)NC(=O)[C@@H](NC(=O)[C@H](CC(=O)O)NC(=O)c1cccc(N=Nc2ccc(CNC(=O)[C@H](CCC(N)=O)NC(=O)[C@H](CC(C)C)NC(=O)[C@H](CCCCN)NC(=O)[C@H](CCCCN)NC(=O)[C@@H](N)CCCNC(=N)N)cc2)c1)C(C)C)C(C)C)C(=O)O [P6] (H-RKKLQ[X1]DVHNFVAL-OH)
readout_number: 20
--
compound: CC(C)C[C@H](NC(=O)[C@H](C)NC(=O)[C@@H](NC(=O)[C@H](Cc1ccccc1)NC(=O)[C@H](CC(N)=O)NC(=O)[C@H](Cc1c[nH]cn1)NC(=O)[C@@H](NC(=O)c1cccc(N=Nc2ccc(CNC(=O)[C@H](CC(=O)O)NC(=O)[C@H](CCC(N)=O)NC(=O)[C@H](CC(C)C)NC(=O)[C@H](CCCCN)NC(=O)[C@H](CCCCN)NC(=O)[C@@H](N)CCCNC(=N)N)cc2)c1)C(C)C)C(C)C)C(=O)O [P1] (H-RKKLQD[X1]VHNFVAL-OH)
readout_number: 90
--
compound: CC(C)C[C@H](NC(=O)[C@H](C)NC(=O)[C@@H](NC(=O)[C@H](Cc1ccccc1)NC(=O)[C@H](CC(N)=O)NC(=O)[C@H](Cc1c[nH]cn1)NC(=O)c1cccc(N=Nc2ccc(CNC(=O)[C@@H](NC(=O)[C@H](CC(=O)O)NC(=O)[C@H](CCC(N)=O)NC(=O)[C@H](CC(C)C)NC(=O)[C@H](CCCCN)NC(=O)[C@H](CCCCN)NC(=O)[C@@H](N)CCCNC(=N)N)C(C)C)cc2)c1)C(C)C)C(=O)O [P2] (H-RKKLQDV[X1]HNFVAL-OH)
readout_number: 60
--
compound: CC(C)C[C@H](NC(=O)[C@H](C)NC(=O)[C@@H](NC(=O)[C@H](Cc1ccccc1)NC(=O)[C@H](CC(N)=O)NC(=O)[C@H](Cc1c[nH]cn1)NC(=O)[C@@H](NC(=O)[C@H](CC(=O)O)NC(=O)[C@H](CCC(N)=O)NC(=O)c1cccc(N=Nc2ccc(CNC(=O)[C@H](CC(C)C)NC(=O)[C@H](CCCCN)NC(=O)[C@H](CCCCN)NC(=O)[C@@H](N)CCCNC(=N)N)cc2)c1)C(C)C)C(C)C)C(=O)O [P7] (H-RKKL[X1]QDVHNFVAL-OH)
readout_number: 140
--
compound: CC(C)C[C@H](NC(=O)[C@H](C)NC(=O)c1cccc(N=Nc2ccc(CNC(=O)[C@@H](NC(=O)[C@H](Cc3ccccc3)NC(=O)[C@H](CC(N)=O)NC(=O)[C@H](Cc3c[nH]cn3)NC(=O)[C@@H](NC(=O)[C@H](CC(=O)O)NC(=O)[C@H](CCC(N)=O)NC(=O)[C@H](CC(C)C)NC(=O)[C@H](CCCCN)NC(=O)[C@H](CCCCN)NC(=O)[C@@H](N)CCCNC(=N)N)C(C)C)C(C)C)cc2)c1)C(=O)O [P11] (H-RKKLQDVHNFV[X1]AL-OH)
readout_number: 20
